Target: Serine/threonine-protein kinase 4 (Homo sapiens) (UniProt Q13043);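 further: mean inhibition of MST1, reported as part of the GSK PKIS dataset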
Sequence (whole entry): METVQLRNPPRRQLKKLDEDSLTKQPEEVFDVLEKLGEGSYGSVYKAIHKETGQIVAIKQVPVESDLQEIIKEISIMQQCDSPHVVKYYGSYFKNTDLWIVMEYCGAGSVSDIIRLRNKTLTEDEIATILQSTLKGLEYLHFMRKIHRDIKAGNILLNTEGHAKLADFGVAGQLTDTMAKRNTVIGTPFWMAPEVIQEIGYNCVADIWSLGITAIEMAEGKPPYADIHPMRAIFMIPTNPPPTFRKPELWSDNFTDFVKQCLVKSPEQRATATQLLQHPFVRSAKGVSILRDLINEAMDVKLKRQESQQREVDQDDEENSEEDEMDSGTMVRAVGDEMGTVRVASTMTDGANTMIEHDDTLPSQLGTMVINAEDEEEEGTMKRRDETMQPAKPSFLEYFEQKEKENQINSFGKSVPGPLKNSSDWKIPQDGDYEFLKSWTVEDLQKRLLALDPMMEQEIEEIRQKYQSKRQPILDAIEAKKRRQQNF
Details: at 0.1 µM
Below, each of the compounds is paired with its reported inhibition value.
A number alone suffices; assume %.

{"TEST_SMILES": "COc1ccc2c(-c3ccnc(Nc4cccc(OC(F)(F)F)c4)n3)cnn2n1", "SYSTEM_TESTED": "Serine/threonine-protein kinase 4 (Homo sapiens) (UniProt Q13043)", "UNIT_ABBREV": "%", "inhibition": 8.73}
{"TEST_SMILES": "Nc1nc(-c2cccc(Cl)c2)c(-c2ccc3ncccc3n2)s1", "SYSTEM_TESTED": "Serine/threonine-protein kinase 4 (Homo sapiens) (UniProt Q13043)", "UNIT_ABBREV": "%", "inhibition": 5.29}
{"TEST_SMILES": "COc1ccc(-c2cc(-c3c[nH]nc3-c3ccccn3)ccn2)cc1", "SYSTEM_TESTED": "Serine/threonine-protein kinase 4 (Homo sapiens) (UniProt Q13043)", "UNIT_ABBREV": "%", "inhibition": 7.65}
{"TEST_SMILES": "Fc1ccc(-c2nn3ccccc3c2-c2ccncc2)cc1", "SYSTEM_TESTED": "Serine/threonine-protein kinase 4 (Homo sapiens) (UniProt Q13043)", "UNIT_ABBREV": "%", "inhibition": 0.01}
{"TEST_SMILES": "Fc1ccc(-c2cc(-c3c[nH]nc3-c3ccccn3)ccn2)cc1", "SYSTEM_TESTED": "Serine/threonine-protein kinase 4 (Homo sapiens) (UniProt Q13043)", "UNIT_ABBREV": "%", "inhibition": 4.5}

Query: inhibition; subject: `COc1cc2ncn(-c3cc(OCc4ccccc4C(F)(F)F)c(C(=O)N(C)C)s3)c2cc1OC`
-0.01

May I ask what inhibition has been recorded for `COc1ccc(-c2cc3c(N)ncnc3o2)cc1` ?
-2

---

Let's look at some compounds and their measured inhibition.
Molecular target: Serine/threonine-protein kinase MRCK beta (Homo sapiens);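 further: values are mean percent inhibition of MRCKB, screened as part of the GSK PKIS kinase inhibitor set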
Settings: at 0.1 µM
I'd appreciate it if you wrote the number followed by its unit.

Solved entries (count: 4):
{"TEST_SMILES": "CCN1CCC(CC(=O)Nc2n[nH]c3nnc(-c4cccc(F)c4F)cc23)CC1", "inhibition": "0.12%"}
{"TEST_SMILES": "CCc1nn2ncccc2c1-c1ccnc(NC2CC2)n1", "inhibition": "1.18%"}
{"TEST_SMILES": "COC(=O)c1sc(-n2cnc3cc(OC)c(OC)cc32)cc1OCc1ccccc1C(F)(F)F", "inhibition": "-0.49%"}
{"TEST_SMILES": "O=S(=O)(CCNCc1ccc(-c2ccc3ncnc(Nc4ccc(OCc5cccc(F)c5)c(Cl)c4)c3c2)o1)c1ccccc1", "inhibition": "0.71%"}

// next entry
If you can, please state the reported inhibition value of `COc1cc(N2CCN(C(C)C)CC2)ccc1Nc1nc(Nc2ccc(F)cc2C(N)=O)c2cc[nH]c2n1` .
1.18%
